- Test system: MCF10A
- Assay notes: percent viability (nuclei count relative to siNT); higher = more viable cells
- Test parameters: 20 nM; 72 h
Listed here: items and their measured percent viability.
Response body: numeric value in %, unit text excluded.

{"columns": ["Monomer sequence", "Measurement unit", "percent viability"],
 "data": [
  ["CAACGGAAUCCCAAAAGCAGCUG [hsa-miR-191-5p]", "%", 29.2],
  ["UCGGGCGCAAGAGCACUGCAGU [hsa-miR-6499-5p]", "%", 43.5],
  ["UAUUCAGGAAGGUGUUACUUAA [hsa-miR-506-5p]", "%", 91],
  ["CUCUCACCACUGCCCUCCCACAG [hsa-miR-1229-3p]", "%", 75.8],
  ["CAACACCAGUCGAUGGGCUGU [hsa-miR-21-3p]", "%", 52.9]
]}

Looking up UAGGAGCUCAACAGAUGCCUGUU [hsa-miR-3139] , I see its percent viability listed as 18.8

// data source = the supplement of paper PMC10899765
